- ASSAY REMARKS: in vivo
- MEASUREMENT PARAMETERS: female, rat GD11, allometrically scaled from GD20 value of Varma and Ramakrishnan [1985], read-out: CLPL, transplacental maternal-foetal clearance rate (converted)
EXPERIMENTAL ENDPOINT: clearance (mL/min)
Respond numerically; units are mL/min and should not be typed.

Query: Any idea what its clearance is? The molecule is Cc1cc(=O)n(-c2ccccc2)n1C [Antipyrine, antipyrine]
Result: 3

---

- ASSAY REMARKS: in vitro
- MEASUREMENT PARAMETERS: human, Caco-2
EXPERIMENTAL ENDPOINT: Papp A→B at 60 min, 100 µM (×10⁻⁶ cm/s)
Respond numerically; units are ×10⁻⁶ cm/s and should not be typed.

| SMILES | Papp A→B at 60 min, 100 µM [×10⁻⁶ cm/s] |
| --- | --- |
| Oc1ccccc1 | 48.4 |

Now turn to the next compound.
Query: Any idea what its Papp A→B at 60 min, 100 µM is? The compound is Oc1ccc(F)cc1
Result: 47.7

---

- ASSAY REMARKS: in vitro
- MEASUREMENT PARAMETERS: rat, pH 7.4
EXPERIMENTAL ENDPOINT: Km at 10 min (µM)
Respond numerically; units are µM and should not be typed.

Query: Any idea what its Km at 10 min is? The compound is Oc1ccc(F)cc1
Result: 314
